molecular target: Adenosine receptors; A2b & A3 (Homo sapiens) (UniProt P29275+P0DMS8); assay: Selectivity ratio (A3/A2B).; assay type: protein assay
Label t when Ratio is strictly below 100; otherwise label f.

-- ask For this compound, is Ratio lower than 100? CCCCn1c(=O)[nH]c2[nH]c(-c3ccc(OCC(=O)N4CCN(Cc5ccccc5)CC4)cc3)nc2c1=O
-- reply f

-- ask Identify whether the compound CCCCn1c(=O)[nH]c2[nH]c(-c3ccc(OCC(=O)O)cc3)nc2c1=O records Ratio below 100.
-- reply f

-- ask Hello, I'm reviewing records and need to know if Ratio of CCCn1c(=O)[nH]c2[nH]c(-c3ccc(OCC(=O)NCCO)cc3)nc2c1=O is below 100. Could you check?
-- reply f

-- ask Would you kindly verify if Ratio of CCCn1c(=O)[nH]c2[nH]c(-c3ccc(Br)cc3)nc2c1=O is strictly less than 100?
-- reply t

-- ask Just wondering, is Ratio of CCCn1c(=O)[nH]c2[nH]c(-c3ccc(/C=C/C(=O)O)cc3)nc2c1=O below 100?
-- reply t

###

system: Adenosine receptors A1 (Rattus norvegicus) & A2B (Homo sapiens); test: Selectivity ratio (A1/A2B)
Below, each entry is listed with its recorded Ratio.
Number only, no unit.

CCCCn1c(=O)[nH]c2[nH]c(-c3ccc(OCC(=O)O)cc3)nc2c1=O = 7
CCCn1c(=O)[nH]c2[nH]c(-c3ccc(OCC(=O)O)cc3)nc2c1=O = 0.4

-- ask Output reported Ratio of the molecule CCCCn1c(=O)[nH]c2nc(-c3ccc(CC(=O)O)cc3)[nH]c2c1=O on Adenosine receptors A1 (Rattus norvegicus) & A2B (Homo sapiens).
-- reply 14

-- ask Provide the reported Ratio (system: Adenosine receptors A1 (Rattus norvegicus) & A2B (Homo sapiens)) for CCCn1c(=O)[nH]c2[nH]c(-c3ccccc3)nc2c1=O
-- reply 7

###

System: Adenosine receptor A3 (Homo sapiens, UniProt P0DMS8) | Read-out: Ki
Sequence (P0DMS8 whole entry): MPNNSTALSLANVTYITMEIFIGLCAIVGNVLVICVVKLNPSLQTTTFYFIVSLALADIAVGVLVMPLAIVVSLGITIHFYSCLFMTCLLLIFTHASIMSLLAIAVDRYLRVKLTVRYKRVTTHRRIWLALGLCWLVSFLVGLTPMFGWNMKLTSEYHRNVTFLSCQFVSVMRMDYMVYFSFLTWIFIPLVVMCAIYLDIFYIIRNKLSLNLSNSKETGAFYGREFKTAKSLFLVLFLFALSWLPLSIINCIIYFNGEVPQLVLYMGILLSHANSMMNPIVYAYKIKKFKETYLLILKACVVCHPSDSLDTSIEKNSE
# number only, unit nM dropped from output

-- ask // output Ki; input C#CCn1c(=O)[nH]c2nc(-c3ccc(Br)cc3)[nH]c2c1=O ; system Adenosine receptor A3 (Homo sapiens, UniProt P0DMS8)
-- reply 477

-- ask Report its Ki with Adenosine receptor A3 (Homo sapiens, UniProt P0DMS8) as the test system: CCCn1c(=O)[nH]c2nc(-c3ccc(OCC(=O)OC)cc3)[nH]c2c1=O
-- reply 80.6

-- ask Under Adenosine receptor A3 (Homo sapiens, UniProt P0DMS8), report Ki for CCCCn1c(=O)[nH]c2[nH]c(-c3ccc(OCC(=O)O)cc3)nc2c1=O
-- reply 1190

-- ask State measured Ki of the compound CCCCn1c(=O)[nH]c2nc(-c3ccc(OCC(=O)N4CCN(c5ccccc5OC)CC4)cc3)[nH]c2c1=O with Adenosine receptor A3 (Homo sapiens, UniProt P0DMS8).
-- reply 102

-- ask Using Adenosine receptor A3 (Homo sapiens, UniProt P0DMS8) as the test system, report measured Ki of CCCn1c(=O)[nH]c2[nH]c(-c3ccc(/C=C/C(=O)O)cc3)nc2c1=O .
-- reply 1220

-- ask Determine reported Ki for CCCCn1c(=O)[nH]c2nc(-c3ccc(OCC(=O)N4CCN(Cc5ccccc5)CC4)cc3)[nH]c2c1=O ; test system: Adenosine receptor A3 (Homo sapiens, UniProt P0DMS8).
-- reply 475

-- ask System Adenosine receptor A3 (Homo sapiens, UniProt P0DMS8). Read-out Ki. Item CCCn1c(=O)[nH]c2nc(-c3ccc(OCC(=O)NCCO)cc3)[nH]c2c1=O . Report value.
-- reply 422

-- ask // fetch Ki; item: CCCCn1c(=O)[nH]c2nc(-c3ccc(OCC(=O)Nc4ccc(C(=O)OC)cc4)cc3)[nH]c2c1=O ; system: Adenosine receptor A3 (Homo sapiens, UniProt P0DMS8)
-- reply 676

###

# Ki per entry
target: Adenosine receptor A2a (Rattus norvegicus); assay: Inhibition of [3H]MSX-2 binding to rat adenosine A2A receptor
Supply the numeric figure in µM, leaving out any unit text.

Below are worked cases with known answers.
CCCn1c(=O)c2[nH]c(-c3ccc(S(=O)(=O)O)cc3)nc2n(CCC)c1=O = 1.4
CCCn1c(=O)[nH]c2cc(-c3ccccc3)[nH]c2c1=O = 1.2

-- ask Please give measured Ki of the following entry: CCCCn1c(=O)[nH]c2nc(-c3ccc(OCC(=O)N4CCN(C(=O)OCc5ccccc5)CC4)cc3)[nH]c2c1=O
-- reply 0.13

-- ask Specify reported Ki for the compound shown: CCCn1c(=O)[nH]c2nc(-c3ccc(OCC(=O)NCCN)cc3)[nH]c2c1=O
-- reply 0.365

-- ask Write down Ki measured for item CCCCn1c(=O)[nH]c2[nH]c(-c3ccc(OCC(=O)N4CCN(C(=O)OCC)CC4)cc3)nc2c1=O
-- reply 0.9

###

target: Adenosine receptors; A2b & A3 (Homo sapiens) (UniProt P29275+P0DMS8); experiment: Selectivity ratio (A3/A2B).; type: protein assay
measured-metric: Ratio
Hey, just send me the number, nothing else.

-- ask Specify Ratio for CCCCn1c(=O)[nH]c2[nH]c(-c3ccc(OCC(=O)Nc4ccc(C(=O)OC)cc4)cc3)nc2c1=O and stop.
-- reply 128

-- ask Supply reported Ratio belonging to this compound: CCCCn1c(=O)[nH]c2nc(-c3ccc(CC(=O)O)cc3)[nH]c2c1=O
-- reply 189

-- ask Find the measured Ratio of CCn1c(=O)[nH]c2[nH]c(-c3ccccc3)nc2c1=O and report it.
-- reply 50

-- ask Assign Ratio to the following record: CCCCn1c(=O)[nH]c2[nH]c(-c3ccc(C(=O)O)cc3)nc2c1=O
-- reply 193

-- ask Supply measured Ratio of CCCn1c(=O)[nH]c2[nH]c(-c3ccc(/C=C/C(=O)OC)cc3)nc2c1=O in your reply.
-- reply 43

-- ask Indicate the recorded Ratio value for this compound: C#CCn1c(=O)[nH]c2[nH]c(-c3ccc(Br)cc3)nc2c1=O
-- reply 70

-- ask State its Ratio for this compound: CCCn1c(=O)[nH]c2[nH]c(-c3ccc(OCC(=O)OC)cc3)nc2c1=O
-- reply 22

-- ask Name the recorded Ratio of the item CCCn1c(=O)c2nc(-c3ccc(S(=O)(=O)O)cc3)[nH]c2n(CCC)c1=O in your answer.
-- reply 1

###

Documented Ratio across a set of compounds
test system: Adenosine receptors A1 (Rattus norvegicus) & A2B (Homo sapiens); assay: Selectivity ratio (A1/A2B)
Form rule: numeric answer, no unit written next to it.

CCCCn1c(=O)[nH]c2[nH]c(-c3ccc(OCC(=O)N4CCN(C(C)=O)CC4)cc3)nc2c1=O = 5

-- ask Tell us which Ratio value is on record for CCCCn1c(=O)[nH]c2[nH]c(-c3ccc(OCC(=O)Nc4ccc(C(=O)OC)cc4)cc3)nc2c1=O
-- reply 8

-- ask Specify Ratio for CCCn1c(=O)[nH]c2[nH]c(-c3ccc(OCC(=O)OC)cc3)nc2c1=O and stop.
-- reply 4

-- ask Output Ratio of CCCCn1c(=O)[nH]c2[nH]c(-c3ccc(OCC(=O)N4CCN(Cc5ccccc5)CC4)cc3)nc2c1=O
-- reply 28

-- ask Supply Ratio value. Item: CCCCn1c(=O)[nH]c2[nH]c(-c3ccccc3)nc2c1=O
-- reply 3

###

tested on: Adenosine receptors A2A (Rattus norvegicus) & A2B (Homo sapiens); assay: Selectivity ratio against adenosine A2A and A2B receptors
So basically: is Ratio under 30? Then 1. Not under? Then 0.

-- ask Say whether its Ratio is strictly beneath 30. Entry: CCCCn1c(=O)[nH]c2[nH]c(-c3ccc(OCC(=O)N4CCN(c5ccccc5OC)CC4)cc3)nc2c1=O
-- reply 0

-- ask hey, is Ratio for CCCn1c(=O)[nH]c2[nH]c(-c3ccc4cc(C(=O)O)ccc4c3)nc2c1=O lower than 30 or not?
-- reply 0

-- ask Please indicate whether the reported Ratio of Cn1c(=O)[nH]c2cc(-c3ccccc3)[nH]c2c1=O is strictly below 30.
-- reply 1

-- ask Does this molecule meet the criterion Ratio < 30? O=c1[nH]c(=O)c2[nH]c(-c3ccccc3)nc2[nH]1
-- reply 1

-- ask Does this molecule meet the criterion Ratio < 30? CCCCn1c(=O)[nH]c2[nH]c(-c3ccc(OCC(=O)N4CCN(c5ccccc5)CC4)cc3)nc2c1=O
-- reply 0

-- ask A record lists CCCn1c(=O)[nH]c2cc(-c3ccccc3)[nH]c2c1=O . Is its Ratio below 30?
-- reply 1

-- ask Identify whether the molecule CCCCn1c(=O)[nH]c2[nH]c(-c3ccc(OCC(=O)N4CCN(C(=O)OCc5ccccc5)CC4)cc3)nc2c1=O records Ratio below 30.
-- reply 0

###

molecular target: Adenosine receptor A2a (Rattus norvegicus, UniProt P30543)
Sequence (P30543 whole entry): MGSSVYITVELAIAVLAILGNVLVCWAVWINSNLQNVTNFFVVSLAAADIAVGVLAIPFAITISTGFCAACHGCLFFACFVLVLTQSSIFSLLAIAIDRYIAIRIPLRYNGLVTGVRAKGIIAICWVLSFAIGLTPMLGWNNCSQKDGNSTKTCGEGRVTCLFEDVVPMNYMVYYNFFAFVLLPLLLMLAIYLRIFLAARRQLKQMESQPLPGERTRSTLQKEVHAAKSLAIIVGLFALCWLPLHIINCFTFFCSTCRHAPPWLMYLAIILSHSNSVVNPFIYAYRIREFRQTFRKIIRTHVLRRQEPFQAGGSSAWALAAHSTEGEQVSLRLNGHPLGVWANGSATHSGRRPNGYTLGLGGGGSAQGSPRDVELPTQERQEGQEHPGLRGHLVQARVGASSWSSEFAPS
measured-metric: Ki (nM)
Numbers only; they are read as nM.

-- ask Please indicate Ki recorded for CCCCn1c(=O)[nH]c2[nH]c(-c3ccc(Br)cc3)nc2c1=O
-- reply 57
